- Tested on: UO-31 renal
- protocolText: NCI tumour cell line growth inhibition, 48 h
Answer each item with its documented TGI.

Value sought: TGI, system UO-31 renal, item Clc1cccc(-c2nnc(-c3nn(-c4ccccc4)c4nc5ccccc5nc34)o2)c1 . Result: > 100 µM

Value sought: TGI, system UO-31 renal, item O=C(CCN1CCCCC1)N1CCc2c([nH]c3ccccc23)C1c1cccnc1 (stereo not given) . Result: 71.1 µM

Value sought: TGI, system UO-31 renal, item Cc1nc2c(o1)C(=Nc1ccccc1)c1nc(C)oc1C2=Nc1ccccc1 . Result: 35.1 µM

Value sought: TGI, system UO-31 renal, item Nc1ccccc1C(=O)CCC1C(=O)NC(=S)NC1=O . Result: > 100 µM

Value sought: TGI, system UO-31 renal, item CCOP(=O)(OCC)C(NC(=O)C(C(F)(F)F)C(F)(F)F)c1ccccc1 (stereo not given) . Result: > 100 µM

Value sought: TGI, system UO-31 renal, item CC(C)(Cl)C(Br)CCC(Br)(CCl)C(Cl)CBr (stereo not given) . Result: > 10 µM

Value sought: TGI, system UO-31 renal, item CN1CCN(C(=O)COc2ccc(/C=C3\CC4C5CC=C6CC(Cl)CCC6(C)C5CCC4(C)C3=O)cc2)CC1 (stereo not given) . Result: > 100 µM

Value sought: TGI, system UO-31 renal, item COC(=O)C1C(=O)O[C@@H](c2cc(OC)c(OC)cc2OC)C1C(=O)OC (mixture of isomers) . Result: > 100 µM

Value sought: TGI, system UO-31 renal, item CCN(CC)CCCC(C)N/C(=C1\C(=O)NC(=O)\C1=C(/NC(C)CCCN(CC)CC)c1cccc(OC)c1)c1cccc(OC)c1 (stereo not given) . Result: 1.49 µM

Value sought: TGI, system UO-31 renal, item O=C1CCc2ccc(O)c(c2)Oc2ccc(cc2)C(Sc2ccccc2)CCO1 (stereo not given) . Result: 33.4 µM

Value sought: TGI, system UO-31 renal, item O=[N+]([O-])c1ccc(-n2nc3ccc4c(no[n+]4[O-])c3n2)cc1 . Result: > 100 µM

Value sought: TGI, system UO-31 renal, item Cc1cc2nc3ccccc3n2c2nc(N)ccc12 . Result: > 100 µM

Value sought: TGI, system UO-31 renal, item CC1(C)CCCC(C)(C2CCC3(C)C2C(O)CC2C4(C)CCC(O)C(C)(C)C4CCC23C)O1 (stereo not given) . Result: > 100 µM

Value sought: TGI, system UO-31 renal, item COC(=O)c1cc(NC(=O)Cc2c[nH]c3ccccc23)cn1C . Result: > 100 µM

Value sought: TGI, system UO-31 renal, item O=C1O/C(=C/c2ccccc2)C(c2ccccc2)=C1O . Result: 88.1 µM

Value sought: TGI, system UO-31 renal, item CC(=O)N1N=C(c2ccc(Nc3nc(Nc4ccc(F)cc4)nc(Nc4ccc(F)cc4)n3)cc2)CC1c1ccc(N(C)C)cc1 (stereo not given) . Result: 35.8 µM

Value sought: TGI, system UO-31 renal, item Nc1ncnc2c1ncn2C1CCC(CP(=O)(O)O)C1 (stereo not given) . Result: > 100 µM

Value sought: TGI, system UO-31 renal, item CC(C)CC(N)C(=O)Nc1ccc2ccccc2c1 (stereo not given) . Result: > 100 µM

Value sought: TGI, system UO-31 renal, item Clc1cccc(C2N3CCCCC3[C@@H]3c4[nH]c5ccccc5c4CCN23)c1 (stereo not given in full) . Result: 82 µM

Value sought: TGI, system UO-31 renal, item COc1ccc(/C=C2/SC(Nc3nc(-c4nc(NC5=NC(=O)/C(=C\c6ccc(OC)cc6)S5)sc4C)c(C)s3)=NC2=O)cc1 . Result: > 32.2 µM
